# System: HS 578T breast
# protocolDetails: NCI tumour cell line growth inhibition, 48 h
recordedEndpoint: TGI (µM)

{"compound": "COc1ccc2oc(=Nc3ccccc3)c(C(N)=O)cc2c1", "subjectOfTest": "HS 578T breast", "comparisonOperator": ">", "observedMeasurement": 70.1}
{"compound": "CCN(CC)CCCC(C)Nc1cc(-c2ccc(C(F)(F)F)cc2)c(C#N)c2nc3ccccc3n12 (stereo not given)", "subjectOfTest": "HS 578T breast", "comparisonOperator": "=", "observedMeasurement": 4.86}
{"compound": "C/C1=C/C(=O)O[C@@H]2C[C@@H](CC[C@H](C)/C=C\\C=C\\CC1)O[C@@](O)([C@@H]1CSC(=O)N1CO)C2", "subjectOfTest": "HS 578T breast", "comparisonOperator": "=", "observedMeasurement": 0.0606}
{"compound": "C[C@@H](N)C1CCC(C(=O)Nc2ccncc2)CC1 (stereo not given in full)", "subjectOfTest": "HS 578T breast", "comparisonOperator": ">", "observedMeasurement": 100}
{"compound": "Cc1nnc2sc(Cl)nn12", "subjectOfTest": "HS 578T breast", "comparisonOperator": ">", "observedMeasurement": 100}

---

Below is a list of entries, each paired with its recorded TGI value.
# Tested on: DU-145 prostate
# protocolDetails: NCI tumour cell line growth inhibition, 48 h

{"molecule": "N=c1oc2c(Br)cc(Br)cc2cc1C(=O)Nc1ccccn1", "TGI": "> 100 µM"}
{"molecule": "COc1ccc(CC2c3cc(OC)c(OC)c(OC)c3CC[N+]2(C)C)cc1Oc1ccc(CC2c3cc4c(c(OC)c3CC[N+]2(C)C)OCO4)cc1 (stereo not drawn)", "TGI": "> 100 µM"}
{"molecule": "C1=Nc2ccc(cc2)N=Cc2ccccc2OCc2cccc(n2)COc2ccccc21", "TGI": "> 100 µM"}
{"molecule": "O=c1c(-c2c(-c3ccccc3)oc3ccc(Cl)cc3c2=O)c(-c2ccccc2)oc2ccc(Cl)cc12", "TGI": "> 100 µM"}
{"molecule": "CC1=CC(=O)CC(C)(C)C1(O)/C=C/C(C)=C/C(=O)O (stereo not drawn)", "TGI": "> 100 µM"}
{"molecule": "CC1C(=NO)C(C)C(c2ccccc2)N(N=O)C1c1ccccc1 (stereo not drawn)", "TGI": "90.8 µM"}
{"molecule": "Cc1c(C#N)c(N)[nH]c(=S)c1C#N", "TGI": "> 100 µM"}
{"molecule": "c1ccc(CSc2ccccc2CN2CCN(Cc3ccccc3SCc3ccccc3)CCN(Cc3ccccc3SCc3ccccc3)CC2)cc1", "TGI": "12.3 µM"}
{"molecule": "O=C(Nc1cc2c(=O)[nH]c3ccccc3c2oc1=O)c1cnccn1", "TGI": "> 100 µM"}
{"molecule": "COc1ccc(N=Nc2c(C)c(C#N)c(=S)n(C3OC(COC(C)=O)C(OC(C)=O)C(OC(C)=O)C3OC(C)=O)c2C)cc1 (stereo not drawn)", "TGI": "> 100 µM"}
{"molecule": "CCN(CC)CC.CCOc1ccc(NC(=O)N=C=[N-])cc1.[CH-]1CCCCC1.[CH-]1CCCCC1.[CH-]1CCCCC1.[Cl-].[Sn+4]", "TGI": "0.19 µM"}
{"molecule": "COc1cc(-c2nc(NC(C)=O)sc2-c2ccnc(NCCNS(=O)(=O)c3ccccc3)n2)ccc1Cl", "TGI": "> 100 µM"}
{"molecule": "C=CCOc1ccc(/C(N=Nc2ccc(C)cc2)=N/NC(=O)c2ccccc2)cc1OC", "TGI": "> 100 µM"}

---

# Tested on: HOP-92 NSCLC
# protocolDetails: NCI tumour cell line growth inhibition, 48 h

{"compound": "CCN1C(=S)n2cccc2C1CC(=O)c1ccc(Cl)cc1 (stereo not given)", "TGI": "> 100 µM"}
{"compound": "COC(=O)[C@H]1[C@@H](O)[C@@]2(O)c3c(OC)cc(O[C@@H]4O[C@@H]([C@H](O)CO)CO[C@H]4OC)cc3O[C@@]2(c2ccc(OC)cc2)[C@@H]1c1ccccc1", "TGI": "0.0151 µM"}
{"compound": "CN(C)CCCNC(=O)c1cc(NC(=O)c2cc(NS(=O)(=O)c3ccc4c(c3)C(=O)c3ccccc3C4=O)cn2C)cn1C", "TGI": "> 100 µM"}
{"compound": "O=C(NCCO)c1cc2c(cn1)[nH]c1ccccc12", "TGI": "> 100 µM"}
{"compound": "Cc1cccc(O)c1-c1nnc(CCCCCCCCc2nnc(-c3c(C)cccc3O)n2N)n1N", "TGI": "> 31.6 µM"}

---

Below is a list of entries, each paired with its recorded TGI value.
# Tested on: UO-31 renal
# protocolDetails: NCI tumour cell line growth inhibition, 48 h

{"molecule": "O=C1Oc2ccccc2C(=O)/C1=C/N1C(=O)/C(=C/c2ccc3c(c2)OCO3)SC1=S", "TGI": "22.9 µM"}
{"molecule": "CCN(CC)C(=S)SNc1ccc(S(N)(=O)=O)cc1", "TGI": "> 100 µM"}
{"molecule": "CCOc1cc2ccc3c4cc(OC)c(OC)cc4cnc3c2cc1OCC", "TGI": "> 100 µM"}
{"molecule": "O=C1c2sc(-c3ccc(F)cc3)cc2-n2cccc21", "TGI": "> 100 µM"}
{"molecule": "O=c1[nH]c(=O)n(C2OC(CO)C(O)C2O)c2ncc(-c3ccc(-c4ccccc4)cc3)nc12 (stereo unspecified)", "TGI": "> 20 µM"}
{"molecule": "C=CC(CBr)CCC(Br)C(C)(C)Br (stereo unspecified)", "TGI": "> 10 µM"}

---

Below is a list of entries, each paired with its recorded GI50 value.
# Test system: SR leukemia
# protocolDetails: NCI tumour cell line growth inhibition, 48 h
recordedEndpoint: GI50

{"molecule": "C/C1=C/C(=O)O[C@@H]2C[C@@H](CC[C@H](C)/C=C\\C=C\\CC1)O[C@@](O)([C@@H]1CSC(=O)N1CO)C2", "recordedEndpoint": "GI50", "observedMeasurement": "0.154 µM"}
{"molecule": "Cc1cc(C(=O)Nc2nc3cccc(Cl)c3n2[C@@H]2CCCCN(C(=O)/C=C/CN(C)C)C2)ccn1", "recordedEndpoint": "GI50", "observedMeasurement": "11.3 µM"}
{"molecule": "C=C(C)[C@@H]1CC[C@]2(C(N)=O)CC[C@]3(C)[C@H](CC[C@@H]4[C@@]5(C)CC[C@H](O)C(C)(C)[C@@H]5CC[C@]43C)[C@@H]12", "recordedEndpoint": "GI50", "observedMeasurement": "4.14 µM"}
{"molecule": "O=C1/C=C/[C@@H](O)[C@@H]2C[C@@H](O)C[C@H]2/C=C/CCC[C@H](CCc2ccc(C(F)(F)F)cc2)O1", "recordedEndpoint": "GI50", "observedMeasurement": "0.311 µM"}
{"molecule": "Cc1ccc2c(c1)C(C)Cc1c(ncnc1-n1cnc3cc(C)ccc31)N2C (configuration not stated)", "recordedEndpoint": "GI50", "observedMeasurement": "0.0449 µM"}
{"molecule": "C=CC(=O)N1C/C(=C\\c2ccccc2)C(=O)/C(=C/c2ccccc2)C1", "recordedEndpoint": "GI50", "observedMeasurement": "0.566 µM"}
{"molecule": "Cc1nc2ccccn2c1NC(=O)NNC(=S)Nc1ccc(Br)cc1", "recordedEndpoint": "GI50", "observedMeasurement": "18.9 µM"}

---

Below is a list of entries, each paired with its recorded TGI value.
# Tested on: HS 578T breast
# protocolDetails: NCI tumour cell line growth inhibition, 48 h
Where a SMILES comes first, the peptide text is derived from it. Bridges are numbered along the chain shown (N, C = ends). [ ]: non-standard residue; d: D form. The star is where a group is joined. Phe(4-NO2) = N[CH](Cc1ccc([N+](=O)[O-])cc1)C(=O)O; Cbz = O=C(OCc1ccccc1)*; PhAc = O=C(Cc1ccccc1)*

{"molecule": "O=C(Cc1ccccc1)N[C@@H]1COC(=O)[C@@H]2CCCN2C(=O)[C@@H]2CCCN2C1=O (PhAc-[dS]-Pro-Pro; ester 1-C)", "TGI": "> 100 µM"}
{"molecule": "CCc1n[nH]c(=O)n1N1C(=O)CCC1=O", "TGI": "> 100 µM"}
{"molecule": "C=CCc1c(C)nc(C)nc1N/N=C/C=C/c1ccccc1", "TGI": "> 100 µM"}
{"molecule": "NC(=NCCCC1(c2ccccc2)CCCC1)Nc1ccc(Cl)cc1", "TGI": "5.03 µM"}
{"molecule": "O=C(NCCc1ccccc1)[C@H]1CCCC[C@@H]1CCO", "TGI": "> 100 µM"}
{"molecule": "Cc1ccccc1N=CN(C)C", "TGI": "> 100 µM"}
{"molecule": "O=C1Oc2ccccc2C(=O)/C1=C/N1C(=O)/C(=C/c2ccc3c(c2)OCO3)SC1=S", "TGI": "14.9 µM"}
{"molecule": "C=C1[C@H](OC(=O)C(C)C)[C@@H](OC(C)=O)[C@@H](OC(C)=O)C(C)(C)[C@@H]2O[C@H]2[C@@H](C)C(=O)[C@@]2(OC(C)=O)C[C@@](C)(OC(C)=O)[C@H](OC(C)=O)[C@@H]2[C@H]1OC(C)=O", "TGI": "> 100 µM"}
{"molecule": "O=C1/C=C/[C@@H](O)[C@@H]2C[C@@H](O)C[C@H]2/C=C/CCC[C@H](CCc2ccc(C(F)(F)F)cc2)O1", "TGI": "> 27.2 µM"}
{"molecule": "Cn1cc(-c2csc(-c3cn(C)c4ccc(Br)cc34)n2)c2cnccc21", "TGI": "4.73 µM"}
{"molecule": "O=C(N/N=C/c1ccccc1O)C(O)(c1ccccc1)c1ccccc1", "TGI": "> 100 µM"}
{"molecule": "CC1(C)Oc2ccc3c(=O)c(-c4ccccc4)c(-c4ccccc4)oc3c2C1C(=O)O (centres undefined)", "TGI": "> 100 µM"}
{"molecule": "O=Nc1ccc(O)c2ccccc12", "TGI": "4.18 µM"}
{"molecule": "N=c1oc2c(Br)cc(Br)cc2cc1C(=O)Nc1ccccn1", "TGI": "> 100 µM"}
{"molecule": "O=C(CSc1nc2ccccc2nc1-c1ccccc1)Nc1ccc(Cl)cc1", "TGI": "70 µM"}
{"molecule": "C=C(C)CNC(=S)N(N)c1ccc(OC)cc1", "TGI": "> 100 µM"}
{"molecule": "C=C(C)[C@@H]1CC[C@]2(C(N)=O)CC[C@]3(C)[C@H](CC[C@@H]4[C@@]5(C)CC[C@H](O)C(C)(C)[C@@H]5CC[C@]43C)[C@@H]12", "TGI": "> 100 µM"}
{"molecule": "CCOC(=O)CCC(NC(=O)OCc1ccccc1)C(=O)NC(CCC(=O)OCC)C(=O)NC(Cc1ccc([N+](=O)[O-])cc1)C(=O)NC(CCC(=O)OCC)C(=O)NC(CCC(=O)OCC)C(=O)OCC (centres undefined) (Cbz-E(OEt)E(OEt)[Phe(4-NO2)]E(OEt)E(OEt)-OEt; configuration not given here)", "TGI": "> 100 µM"}
{"molecule": "CCCCC(C(=O)N/N=C/c1ccc([N+](=O)[O-])o1)C(=O)N/N=C/c1ccc([N+](=O)[O-])o1", "TGI": "5.57 µM"}
